Test system: MCF7
Assay: Cytotoxicity against human MCF7 cells after 72 hrs by SRB assay
Format: functional, cell-based
Conditions: MCF7, 72 h
For each record, write down the corresponding IC50.
Provide a numeric answer, followed by its unit.

Example cases with answers are listed next.
{"Molecule": "CC(=O)O[C@@H](CC(C)C)C[C@]1(C)OC(=O)[C@]23CC[C@H]4C(=CC[C@H]5C(C)(C)[C@@H](O[C@@H]6OC[C@@H](O)[C@H](O)[C@H]6O[C@@H]6O[C@H](C)[C@@H](O)[C@H](O)[C@H]6O)CC[C@]45C)[C@]2(C)CC[C@@H]31", "Endpoint Label": "IC50", "Result": "2.12 µM"}
{"Molecule": "C=C(C)CCC(O)[C@]1(C)OC(=O)[C@]23CC[C@H]4C(=CC[C@H]5C(C)(C)[C@@H](O[C@@H]6OC[C@@H](O)[C@H](O)[C@H]6O[C@@H]6O[C@H](CO)[C@@H](O)[C@H](O)[C@H]6O)CC[C@]45C)[C@]2(C)CC[C@H]13 (stereo not given in full)", "Endpoint Label": "IC50", "Result": "41.9 µM"}
{"Molecule": "CC(C)C[C@H](O)C[C@]1(C)OC(=O)[C@]23CC[C@H]4C(=CC[C@H]5C(C)(C)[C@@H](O[C@@H]6OC[C@@H](O)[C@H](O)[C@H]6O[C@@H]6OC[C@@H](O)[C@H](O)[C@H]6O)CC[C@]45C)[C@]2(C)CC[C@@H]31", "Endpoint Label": "IC50", "Result": "52.2 µM"}
{"Molecule": "C=C(C)C[C@@H](C[C@]1(C)OC(=O)[C@]23CC[C@H]4C(=CC[C@H]5C(C)(C)[C@@H](O[C@@H]6OC[C@@H](O)[C@H](O)[C@H]6O[C@@H]6O[C@H](CO)[C@@H](O)[C@H](O)[C@H]6O)CC[C@]45C)[C@]2(C)CC[C@@H]31)OC(C)=O", "Endpoint Label": "IC50", "Result": "7.25 µM"}

Query block: Lab note: need IC50 with MCF7 for entry C=C(C)CCC(O)[C@]1(C)OC(=O)[C@]23CC[C@H]4C(=CC[C@H]5C(C)(C)[C@@H](O[C@@H]6OC[C@@H](O)[C@H](O)[C@H]6O[C@@H]6O[C@H](CO)[C@@H](OS(=O)(=O)O)[C@H](O)[C@H]6O)CC[C@]45C)[C@]2(C)CC[C@H]13 (stereo not given in full) , please look it up.
Result block: 59.5 µM

---

System: SK-MEL-2
Assay: Cytotoxicity against human SK-MEL-2 cells after 72 hrs by SRB assay
Assay type: functional, cell-based
Details: SK-MEL-2, 72 h
Endpoint Label: pIC50
Answers are plain numbers, as −log10 of the molar value.

{"Compound": "CC(=O)O[C@@H](CC(C)C)C[C@]1(C)OC(=O)[C@]23CC[C@H]4C(=CC[C@H]5C(C)(C)[C@@H](O[C@@H]6OC[C@@H](O)[C@H](O)[C@H]6O[C@@H]6OC[C@@H](O)[C@H](O)[C@H]6O)CC[C@]45C)[C@]2(C)CC[C@@H]31", "Assay System": "SK-MEL-2", "pIC50": 5.66}
{"Compound": "CC(=O)O[C@@H](CC(C)C)C[C@]1(C)OC(=O)[C@]23CC[C@H]4C(=CC[C@H]5C(C)(C)[C@@H](O[C@@H]6OC[C@@H](O)[C@H](O)[C@H]6O[C@@H]6O[C@H](CO)[C@@H](O)[C@H](O)[C@H]6O)CC[C@]45C)[C@]2(C)CC[C@@H]31", "Assay System": "SK-MEL-2", "pIC50": 5.24}
{"Compound": "C=C(C)C[C@@H](C[C@]1(C)OC(=O)[C@]23CC[C@H]4C(=CC[C@H]5C(C)(C)[C@@H](O[C@@H]6OC[C@@H](O)[C@H](O)[C@H]6O[C@@H]6OC[C@@H](O)[C@H](O)[C@H]6O)CC[C@]45C)[C@]2(C)CC[C@@H]31)OC(C)=O", "Assay System": "SK-MEL-2", "pIC50": 5.64}

Query block: # pIC50 lookup, item C=C(C)CCC(O)[C@]1(C)OC(=O)[C@]23CC[C@H]4C(=CC[C@H]5C(C)(C)[C@@H](O[C@@H]6OC[C@@H](O)[C@H](O)[C@H]6O[C@@H]6O[C@H](CO)[C@@H](OS(=O)(=O)O)[C@H](O)[C@H]6O)CC[C@]45C)[C@]2(C)CC[C@H]13 (some centres undefined)
Result block: 4.17
